Cited source for all entries: the supplement of paper PMC10724198

System: Saccharomyces cerevisiae
Assay: protein stability index of tFT-peptide fusion (C-terminal peptide) (PSI (0-1 scale)); higher = more stable (slower turnover);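 further: PSI is a weighted mean of sequencing reads over stability bins, variants kept only with over 10 reads, mCherry proximal and sfGFP distal, peptide attached via GGGS linker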
Details: genetic background: wild type; temperature: 30 C
metric: protein stability index

Consider the reported protein stability index for these sequences:
INSERT INTO results (primary_sequence, value_reported) VALUES
  ('RRPCTSSHAKAP', 0.692),
  ('KKRNKNKKTKEE', 0.68),
  ('SRCIIGILTRNF', 0.684);

In: Give reported protein stability index value for KKVRTNTSKEIK
Out: 0.692

###

# protein stability index per entry
Tested on: Saccharomyces cerevisiae
Test: protein stability index of tFT-peptide fusion (C-terminal peptide) (PSI (0-1 scale)); higher = more stable (slower turnover)
Details: genetic background: wild type; temperature: 37 C
Please give the numeric answer without any surrounding text.

INSERT INTO measurements (primary_sequence, metric, value_reported) VALUES
  ('HLLMLAMVGFQC', 'protein stability index', 0.583),
  ('TYNVMFSPWRKA', 'protein stability index', 0.381),
  ('FICLLFSCVYLG', 'protein stability index', 0.529),
  ('VFSAIPDWLILA', 'protein stability index', 0.462);

API: the following record is the query input.
In: For LLGHLFTMLVIY , write its protein stability index.
Out: 0.311
